tested on: KRAS patient-derived spheroids with HUVEC/MSC, viability; assay: Anticancer human tumor 323965-272-R-J2-PDC patient-derived pancreatic carcinoma cell line growth inhibition [KRAS2]; settings: second compound 3.16 µM; first compound 3.16 µM; stronger effect = lower value
assayEndpoint: viability, T/C (%)

CCNC(=O)CC1N=C(c2ccc(Cl)cc2)c2cc(OC)ccc2-n2c(C)nnc21 (stereo not drawn) + C=CC(=O)N1CCN(c2nc(=O)n(-c3c(C)ccnc3C(C)C)c3nc(-c4c(O)cccc4F)c(F)cc23)C(C)C1 ... 28.3
CC1OCC2(CCN(c3cnc(Sc4ccnc(N)c4Cl)c(N)n3)CC2)C1N (stereo not drawn) + COc1cc2nc(C)nc(NC(C)c3cc(N)cc(C(F)(F)F)c3)c2cc1OC1CCOC1 ... 13.8
O=C(c1cc(Cc2n[nH]c(=O)c3ccccc23)ccc1F)N1CCN(C(=O)C2CC2)CC1 + CNCc1ccccc1-c1csc(C(C)Nc2nc(C)nc3cc(OC)c(OC)cc23)c1 ... 92.5

====

system: KRAS patient-derived spheroids with HUVEC/MSC, viability; test: Anticancer human tumor 323965-272-R-J2-PDC cell line growth inhibition [KRAS2]; details: second compound 1 µM; first compound 0.0316 µM; stronger effect = lower value;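 note: spheroids exposed to agents for 7 days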;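 for viability, T/C: 100% = DMSO vehicle control viability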
assayEndpoint: viability, T/C (%)

COc1cc2nccc(Oc3ccc(NC(=O)C4(C(=O)Nc5ccc(F)cc5)CC4)cc3)c2cc1OC + C=CC(=O)N1CCN(c2nc(OCC3CCCN3C)nc3c2CCN(c2cccc4cccc(C)c24)C3)CC1CC#N ... 59.3
CC(C)NCC(C(=O)N1CCN(c2ncnc3c2C(C)CC3O)CC1)c1ccc(Cl)cc1 (stereo not given) + C=CC(=O)N1CCN(c2nc(=O)n(-c3c(C)ccnc3C(C)C)c3nc(-c4c(O)cccc4F)c(F)cc23)C(C)C1 ... 61.2
Cn1nccc1Nc1nccc(-c2cc3c(s2)C(C)(C)N(CCN2CCOCC2)C3=O)n1 + C=CC(=O)N1CCN(c2nc(=O)n(-c3c(C)ccnc3C(C)C)c3nc(-c4c(O)cccc4F)c(F)cc23)C(C)C1 ... 53.8
CC(C)n1nc(-c2ccc3oc(N)nc3c2)c2c(N)ncnc21 + C=CC(=O)N1CCN(c2nc(=O)n(-c3c(C)ccnc3C(C)C)c3nc(-c4c(O)cccc4F)c(F)cc23)C(C)C1 ... 15.6
CCN1CCN(Cc2ccc(Nc3ncc(F)c(-c4cc(F)c5nc(C)n(C(C)C)c5c4)n3)nc2)CC1 + CNCc1ccccc1-c1csc(C(C)Nc2nc(C)nc3cc(OC)c(OC)cc23)c1 ... 72.6
CN(C)C/C=C/C(=O)Nc1cc2c(Nc3ccc(F)c(Cl)c3)ncnc2cc1O[C@H]1CCOC1 + C=CC(=O)N1CCN(c2nc(=O)n(-c3c(C)ccnc3C(C)C)c3nc(-c4c(O)cccc4F)c(F)cc23)C(C)C1 ... 37.8
Cn1nccc1Nc1nccc(-c2cc3c(s2)C(C)(C)N(CCN2CCOCC2)C3=O)n1 + CC1OCC2(CCN(c3cnc(Sc4ccnc(N)c4Cl)c(N)n3)CC2)C1N ... 32.9
CC1COCCN1c1cc(-c2ccnn2C)c2ccnc(-c3ccn[nH]3)c2n1 (stereo not given) + COc1cc2nc(C)nc(NC(C)c3cc(N)cc(C(F)(F)F)c3)c2cc1OC1CCOC1 ... 21.4
Cn1ncnc1[C@H]1c2n[nH]c(=O)c3cc(F)cc(c23)N[C@@H]1c1ccc(F)cc1 + C=CC(=O)N1CCN(c2nc(OCC3CCCN3C)nc3c2CCN(c2cccc4cccc(C)c24)C3)CC1CC#N ... 52.8
COC(=O)c1ccc2c(C(=Nc3ccc(N(C)C(=O)CN4CCN(C)CC4)cc3)c3ccccc3)c(O)[nH]c2c1 + COc1cc2nc(C)nc(NC(C)c3cc(N)cc(C(F)(F)F)c3)c2cc1OC1CCOC1 ... 82.6
CCN1CCN(Cc2ccc(Nc3ncc(F)c(-c4cc(F)c5nc(C)n(C(C)C)c5c4)n3)nc2)CC1 + C=CC(=O)N1CCN(c2nc(=O)n(-c3c(C)ccnc3C(C)C)c3nc(-c4c(O)cccc4F)c(F)cc23)C(C)C1 ... 36.4
CCNC(=O)CC1N=C(c2ccc(Cl)cc2)c2cc(OC)ccc2-n2c(C)nnc21 (stereo not given) + CC1OCC2(CCN(c3cnc(Sc4ccnc(N)c4Cl)c(N)n3)CC2)C1N ... 45.6
COC(=O)c1ccc2c(C(=Nc3ccc(N(C)C(=O)CN4CCN(C)CC4)cc3)c3ccccc3)c(O)[nH]c2c1 + C=CC(=O)N1CCN(c2nc(OCC3CCCN3C)nc3c2CCN(c2cccc4cccc(C)c24)C3)CC1CC#N ... 64.9
O=C(c1cc(Cc2n[nH]c(=O)c3ccccc23)ccc1F)N1CCN(C(=O)C2CC2)CC1 + C=CC(=O)N1CCN(c2nc(OCC3CCCN3C)nc3c2CCN(c2cccc4cccc(C)c24)C3)CC1CC#N ... 61.6
CC1(C)CCC(CN2CCN(c3ccc(C(=O)NS(=O)(=O)c4ccc(NCC5CCOCC5)c([N+](=O)[O-])c4)c(Oc4cnc5[nH]ccc5c4)c3)CC2)=C(c2ccc(Cl)cc2)C1 + CNCc1ccccc1-c1csc(C(C)Nc2nc(C)nc3cc(OC)c(OC)cc23)c1 ... 106
Cn1ncnc1[C@H]1c2n[nH]c(=O)c3cc(F)cc(c23)N[C@@H]1c1ccc(F)cc1 + CC1OCC2(CCN(c3cnc(Sc4ccnc(N)c4Cl)c(N)n3)CC2)C1N ... 42
CC(=O)Nc1cccc(-n2c(=O)n(C3CC3)c(=O)c3c(Nc4ccc(I)cc4F)n(C)c(=O)c(C)c32)c1 + C=CC(=O)N1CCN(c2nc(=O)n(-c3c(C)ccnc3C(C)C)c3nc(-c4c(O)cccc4F)c(F)cc23)C(C)C1 ... 27
CN(C)C/C=C/C(=O)Nc1cc2c(Nc3ccc(F)c(Cl)c3)ncnc2cc1O[C@H]1CCOC1 + CNCc1ccccc1-c1csc(C(C)Nc2nc(C)nc3cc(OC)c(OC)cc23)c1 ... 63.3
CC(C)n1nc(-c2ccc3oc(N)nc3c2)c2c(N)ncnc21 + COc1cc2nc(C)nc(NC(C)c3cc(N)cc(C(F)(F)F)c3)c2cc1OC1CCOC1 ... 16.7
CCNC(=O)CC1N=C(c2ccc(Cl)cc2)c2cc(OC)ccc2-n2c(C)nnc21 (stereo not given) + C=CC(=O)N1CCN(c2nc(OCC3CCCN3C)nc3c2CCN(c2cccc4cccc(C)c24)C3)CC1CC#N ... 60.4

====

Each entry below lists one item and its recorded pIC50 value.
test system: KRAS patient-derived spheroids with HUVEC/MSC, viability; experiment: Anticancer human tumor 323965-272-R-J2-PDC cell line growth inhibition [KRAS2]; conditions: curve of first compound; second compound 1 µM;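 note: spheroids exposed to agents for 7 days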
pIC50: −log10 of the molar value.
assayEndpoint: pIC50

O=C(c1cc(Cc2n[nH]c(=O)c3ccccc23)ccc1F)N1CCN(C(=O)C2CC2)CC1 + CC1OCC2(CCN(c3cnc(Sc4ccnc(N)c4Cl)c(N)n3)CC2)C1N ... 5.03
CC1COCCN1c1cc(-c2ccnn2C)c2ccnc(-c3ccn[nH]3)c2n1 (stereo not given) + CNCc1ccccc1-c1csc(C(C)Nc2nc(C)nc3cc(OC)c(OC)cc23)c1 ... 7.65

====

Each entry below lists one item and its recorded viability, T/C value.
tested on: KRAS patient-derived spheroids with HUVEC/MSC, viability; experiment: Anticancer human tumor 323965-272-R-J2-PDC cell line growth inhibition [KRAS2]; conditions: second compound 1 µM; first compound 0.1 µM; stronger effect = lower value;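 note: spheroids exposed to agents for 7 days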;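 for viability, T/C: 100% = DMSO vehicle control viability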
assayEndpoint: viability, T/C (%)

CC1COCCN1c1cc(-c2ccnn2C)c2ccnc(-c3ccn[nH]3)c2n1 (centres undefined) + COc1cc2nc(C)nc(NC(C)c3cc(N)cc(C(F)(F)F)c3)c2cc1OC1CCOC1 ... 12.4
CC(C)n1nc(-c2ccc3oc(N)nc3c2)c2c(N)ncnc21 + CC1OCC2(CCN(c3cnc(Sc4ccnc(N)c4Cl)c(N)n3)CC2)C1N ... 2.03
COc1cc(Nc2ncc3c(n2)-c2ccc(Cl)cc2C(c2c(F)cccc2OC)=NC3)ccc1C(=O)O + COc1cc2nc(C)nc(NC(C)c3cc(N)cc(C(F)(F)F)c3)c2cc1OC1CCOC1 ... 39.6
CC(C)n1nc(-c2ccc3oc(N)nc3c2)c2c(N)ncnc21 + C=CC(=O)N1CCN(c2nc(OCC3CCCN3C)nc3c2CCN(c2cccc4cccc(C)c24)C3)CC1CC#N ... 11.1

====

system: KRAS patient-derived spheroids with HUVEC/MSC, viability; assay: Anticancer human tumor 323965-272-R-J2-PDC cell line growth inhibition [KRAS2]; details: second compound 3.16 µM; first compound 0.1 µM; active = viability on the fitted dose curve at most 10% of control; inactive = the rest;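 note: spheroids exposed to agents for 7 days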
Outcomes: T = active, F = inactive

CC(C)n1nc(-c2ccc3oc(N)nc3c2)c2c(N)ncnc21 + CNCc1ccccc1-c1csc(C(C)Nc2nc(C)nc3cc(OC)c(OC)cc23)c1 ... T
CC(C)n1nc(-c2ccc3oc(N)nc3c2)c2c(N)ncnc21 + CC1OCC2(CCN(c3cnc(Sc4ccnc(N)c4Cl)c(N)n3)CC2)C1N ... T
CC1(C)CCC(CN2CCN(c3ccc(C(=O)NS(=O)(=O)c4ccc(NCC5CCOCC5)c([N+](=O)[O-])c4)c(Oc4cnc5[nH]ccc5c4)c3)CC2)=C(c2ccc(Cl)cc2)C1 + CC1OCC2(CCN(c3cnc(Sc4ccnc(N)c4Cl)c(N)n3)CC2)C1N ... F
COc1cc(Nc2ncc3c(n2)-c2ccc(Cl)cc2C(c2c(F)cccc2OC)=NC3)ccc1C(=O)O + C=CC(=O)N1CCN(c2nc(=O)n(-c3c(C)ccnc3C(C)C)c3nc(-c4c(O)cccc4F)c(F)cc23)C(C)C1 ... F
CN(C)C/C=C/C(=O)Nc1cc2c(Nc3ccc(F)c(Cl)c3)ncnc2cc1O[C@H]1CCOC1 + CNCc1ccccc1-c1csc(C(C)Nc2nc(C)nc3cc(OC)c(OC)cc23)c1 ... F

Source listed as PubChem BioAssay AID1963869.
